test system: M19-MEL melanoma; assay: NCI tumour cell line growth inhibition, 48 h
property.measured: TGI

[[record]]
compound = "CS(=O)(=O)OC1CCC2(C#N)CCC1C2=O (centres undefined)"
endpoint_result = "> 100 µM"

[[record]]
compound = "COC(=O)CC1C[C@H](C#N)N(C(=O)c2ccccc2)C[C@@H]1CC[N+](=O)[O-] (some centres undefined)"
endpoint_result = "> 100 µM"

[[record]]
compound = "CCCCCCCCCCCc1nnc(N)o1"
endpoint_result = "> 100 µM"

[[record]]
compound = "[N-]=[N+]=NC(CCl)c1cn([C@H]2C[C@H](O)[C@@H](CO)O2)c(=O)[nH]c1=O (some centres undefined)"
endpoint_result = "> 100 µM"

[[record]]
compound = "CC(=O)c1ccc2c(c1)c1c(C)c3c[n+](C)ccc3c(C)c1n2C"
endpoint_result = "23.7 µM"

[[record]]
compound = "CN(/N=C/c1cccc2cccnc12)c1ccc([N+](=O)[O-])cc1[N+](=O)[O-]"
endpoint_result = "> 100 µM"

[[record]]
compound = "COc1ccc(C23C(=O)c4ccccc4N2O[C@H]2C(=O)N(c4ccccc4)C(=O)[C@H]23)cc1 (some centres undefined)"
endpoint_result = "> 100 µM"

[[record]]
compound = "C=C1C(=O)O[C@@H]2C[C@@H](C)[C@@H]3C=CC(=O)[C@@]3(C)[C@@H](O)[C@H]12"
endpoint_result = "20.6 µM"

[[record]]
compound = "CC(C)=CC1C[C@H](C2CC=C3C2(C)CCC2[C@@]3(C)C(=O)CC3[C@]2(C)C=CC(=O)[C@]3(C)CO)CO1 (some centres undefined)"
endpoint_result = "16.7 µM"


----------
test system: RPMI-8226 leukemia; assay: NCI tumour cell line growth inhibition, 48 h
property.measured: TGI

[[record]]
compound = "N#CC1(C#N)C2(c3ccccc3)OC(c3ccccc3)(c3cc4ccccc4cc32)C1(C#N)C#N"
property_measured = "TGI"
endpoint_result = "5.34 µM"

[[record]]
compound = "O=C1/C(=c2\\s/c(=C\\c3ccccc3)c(=O)n2-c2ccccc2)SC(=S)N1c1ccccc1"
property_measured = "TGI"
endpoint_result = "> 100 µM"

[[record]]
compound = "O/N=C1/C(=C/c2ccc3c(c2)OCO3)CCCC1C(NO)c1ccc2c(c1)OCO2 (centres undefined)"
property_measured = "TGI"
endpoint_result = "40.9 µM"

[[record]]
compound = "CC[C@@]1(O)C(=O)OCc2c1cc1n(c2=O)Cc2c-1nc1ccccc1c2/C=N\\NC(=O)C(N)CO (some centres undefined)"
property_measured = "TGI"
endpoint_result = "> 73.2 µM"

[[record]]
compound = "O=C(Nc1ccc([As](=O)(O)O)cc1)Nc1cccc(Cl)c1Cl"
property_measured = "TGI"
endpoint_result = "> 100 µM"

[[record]]
compound = "O=C1N(C2CCCCC2)CC12CCCCC2"
property_measured = "TGI"
endpoint_result = "> 100 µM"

[[record]]
compound = "C[C@]12CC[C@@H]3c4ccc(OC(=O)N(CCCl)CCCl)cc4CC[C@H]3[C@@H]1CC[C@@H]2O"
property_measured = "TGI"
endpoint_result = "5.42 µM"

[[record]]
compound = "O=C(O)CCCSC(=O)Nc1ccc(N=Nc2ccccc2)cc1"
property_measured = "TGI"
endpoint_result = "> 100 µM"

[[record]]
compound = "Cc1c2ccncc2c(C)c2c1[nH]c1ccc(OC(C)C)cc12"
property_measured = "TGI"
endpoint_result = "5.12 µM"

[[record]]
compound = "COC(=O)CC1C[C@H](C#N)N(C(=O)c2ccccc2)C[C@@H]1CC[N+](=O)[O-] (some centres undefined)"
property_measured = "TGI"
endpoint_result = "> 100 µM"

[[record]]
compound = "O=[N+]([O-])C(=C(Nc1ccccc1)Nc1ccccc1)/C(Cl)=C(\\Cl)[N+](=O)[O-]"
property_measured = "TGI"
endpoint_result = "19.2 µM"

[[record]]
compound = "C=C(CCOC)CCC1CCCCC(=C)[C@H]1OC(C)=O (some centres undefined)"
property_measured = "TGI"
endpoint_result = "> 100 µM"

[[record]]
compound = "O=c1[nH]nc(-c2ccccc2)n1Nc1ccccc1"
property_measured = "TGI"
endpoint_result = "> 100 µM"

[[record]]
compound = "Fc1ccc(C(OCCN2CCN(CCCCl)CC2)c2ccc(F)cc2)cc1"
property_measured = "TGI"
endpoint_result = "49.5 µM"

[[record]]
compound = "CC1(C)O[C@H]2[C@H](O)C[C@](O)(CO)C[C@H]2O1"
property_measured = "TGI"
endpoint_result = "> 100 µM"

[[record]]
compound = "CCN(CC)c1c(C(=O)/C=C/c2ccc(Cl)cc2)c(-c2ccccc2)nn(C)c1=O"
property_measured = "TGI"
endpoint_result = "5.2 µM"

[[record]]
compound = "Cc1ccc(C2=Nn3c(nc4sc(C)c(C)c4c3=O)SC2)cc1"
property_measured = "TGI"
endpoint_result = "> 100 µM"

[[record]]
compound = "CCc1cccc(C(C)(C)C)c1NC(=S)N/C=C(/C#N)C(N)=O"
property_measured = "TGI"
endpoint_result = "> 100 µM"

[[record]]
compound = "O=c1[nH]c(=O)c2cn[nH]c2[nH]1"
property_measured = "TGI"
endpoint_result = "> 100 µM"

[[record]]
compound = "COc1ccc(-c2cc3c(c4cc(OC)ccc24)C(=O)OC3=O)cc1"
property_measured = "TGI"
endpoint_result = "> 100 µM"

[[record]]
compound = "CCN1C(=O)N(CC)C2C1NN=c1s/c(=C\\c3cccc(F)c3)c(=O)n12 (centres undefined)"
property_measured = "TGI"
endpoint_result = "7.78 µM"

[[record]]
compound = "Cc1ccc2nc(Cl)c(/C=N/N3C(=O)/C(=C/c4cccc([N+](=O)[O-])c4)N=C3c3ccccc3)cc2c1"
property_measured = "TGI"
endpoint_result = "> 100 µM"

[[record]]
compound = "CC(=O)OCCCC(NC(=O)OC(C)(C)C)C(=O)NC(CCCOC(C)=O)C(=O)NC(Cc1ccc([N+](=O)[O-])cc1)C(=O)NCC(=O)OCc1ccccc1 (centres undefined)"
property_measured = "TGI"
endpoint_result = "44.6 µM"

[[record]]
compound = "OC(Cc1ccncc1)C(Cl)(Cl)Cl (centres undefined)"
property_measured = "TGI"
endpoint_result = "> 100 µM"

[[record]]
compound = "CC1CCC2(O)C3(C)CC4(O)OC2(C1O)C1(O)C3(O)C(OC(=O)c2ccc[nH]2)C(O)(C(C)C)C41C (centres undefined)"
property_measured = "TGI"
endpoint_result = "> 100 µM"

[[record]]
compound = "ClCc1cccc2c(CCl)cccc12"
property_measured = "TGI"
endpoint_result = "7.41 µM"

[[record]]
compound = "O=C1C(Cl)=C(Nc2cccc(F)c2)C(=O)N1Cc1ccc(Cl)cc1"
property_measured = "TGI"
endpoint_result = "14.2 µM"

[[record]]
compound = "C=C[C@@]1(C)CC[C@@H]2[C@@]3(C1)O[C@H]3CC1[C@](C)(C(=O)OC)CCC[C@@]12C (some centres undefined)"
property_measured = "TGI"
endpoint_result = "65.6 µM"

[[record]]
compound = "O=[N+]([O-])c1ccc(C[P+](c2ccccc2)(c2ccccc2)c2ccccc2)cc1"
property_measured = "TGI"
endpoint_result = "> 100 µM"

[[record]]
compound = "CC(=O)NC1C(OC[C@@H](CC(=O)N[C@@H](CC(=O)O)CC(=O)N[C@H](CC(=O)N[C@@H](CCCN)CC(=O)N[C@@H](CCCN)CC(=O)N[C@H](CC(N)=O)C(C)C)C(C)C)NC(=O)C[C@@H](N)C(C)C)OC(CO)C(O)C1O (some centres undefined)"
property_measured = "TGI"
endpoint_result = "> 100 µM"

[[record]]
compound = "Brc1ccc(C2CC(c3cccc4ccccc34)=Nc3ccccc3S2)cc1 (centres undefined)"
property_measured = "TGI"
endpoint_result = "51.6 µM"

[[record]]
compound = "C=C1C(=O)O[C@@H]2C[C@@H](C)[C@@H]3C=CC(=O)[C@@]3(C)[C@@H](O)[C@H]12"
property_measured = "TGI"
endpoint_result = "2.81 µM"

[[record]]
compound = "O=S1(=O)OCCOS(=O)(=O)C1S(=O)(=O)c1ccc2ccccc2c1"
property_measured = "TGI"
endpoint_result = "> 100 µM"

[[record]]
compound = "CN(O)C(=O)SCC(NC(=O)CCC(N)C(=O)O)C(=O)NCC(=O)O (centres undefined)"
property_measured = "TGI"
endpoint_result = "> 2000 µM"

[[record]]
compound = "[N-]=[N+]=NC(CCl)c1cn([C@H]2C[C@H](O)[C@@H](CO)O2)c(=O)[nH]c1=O (some centres undefined)"
property_measured = "TGI"
endpoint_result = "> 100 µM"

[[record]]
compound = "C[C@H](NC(=O)[C@@H](C)N)[C@H](Oc1ccc2c(cnn2-c2ccc(F)cc2)c1)c1ccc2c(c1)OCCO2"
property_measured = "TGI"
endpoint_result = "3.75 µM"

[[record]]
compound = "COc1ccc(/C=N/N=C(\\N)NO)cc1O"
property_measured = "TGI"
endpoint_result = "> 100 µM"

[[record]]
compound = "BrC1=CCC23CC=C(Br)[C@H]4CC2(COC3)C[C@@H]1O4 (some centres undefined)"
property_measured = "TGI"
endpoint_result = "> 100 µM"

[[record]]
compound = "Cc1cc2c(cc1C)OC(=O)CC2"
property_measured = "TGI"
endpoint_result = "> 100 µM"

